Reported values of Fold change for individual entries
molecular target: T1, human LAP-TGFB1 Fc fusion (human); assay: BLI off-rate screen
T1 construct: also called human LAP-TGFβ1-Fc; human LAP-TGFβ-Fc isoform 1
T1 sequence (chain, as listed by the source limits assumed): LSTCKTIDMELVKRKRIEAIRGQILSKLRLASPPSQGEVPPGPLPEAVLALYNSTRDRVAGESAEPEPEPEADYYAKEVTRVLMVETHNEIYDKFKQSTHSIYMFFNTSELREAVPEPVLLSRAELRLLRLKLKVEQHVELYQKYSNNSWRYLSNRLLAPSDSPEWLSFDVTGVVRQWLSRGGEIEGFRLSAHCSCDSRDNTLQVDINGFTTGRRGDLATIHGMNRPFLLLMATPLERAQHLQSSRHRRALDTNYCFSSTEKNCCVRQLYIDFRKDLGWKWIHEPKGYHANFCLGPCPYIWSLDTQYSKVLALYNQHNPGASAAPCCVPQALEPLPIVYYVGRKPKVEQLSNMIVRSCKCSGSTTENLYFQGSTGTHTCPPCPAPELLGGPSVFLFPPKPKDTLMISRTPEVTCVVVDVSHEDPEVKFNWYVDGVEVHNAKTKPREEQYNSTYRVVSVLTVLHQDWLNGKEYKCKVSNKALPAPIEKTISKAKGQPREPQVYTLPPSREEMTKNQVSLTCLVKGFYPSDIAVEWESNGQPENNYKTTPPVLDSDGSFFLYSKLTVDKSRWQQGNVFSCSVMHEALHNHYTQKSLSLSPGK
Give a bare numeral; the unit fold is implied.

These solved cases illustrate the format of a correct answer.
Binder: VH S54Y (80BIT) (Fab, V domains shown) VH: EVQLVQSGAEVKKPGASVKVSCKASGYTFTSYWMHWVRQAPGQGLEWMGRIDPQYGGIKYAQKFQGRATLTVDTSTSTAYMELSRLRSDDTAVYYCARWDYGGYFDVWGQGTLVTVSS VL: DIQMTQSPSSLSASVGDRVTITCRASQDITNYLNWYQQKPGKAVKLLIYYTSRLHSGVPSRFSGSGSGTDYTLTISSLQPEDFATYFCQQGDTLPWTFGQGTKLEIKR
Measured: 1

Binder: VH Q53Y (79BIT) (Fab, V domains shown) VH: EVQLVQSGAEVKKPGASVKVSCKASGYTFTSYWMHWVRQAPGQGLEWMGRIDPYSGGIKYAQKFQGRATLTVDTSTSTAYMELSRLRSDDTAVYYCARWDYGGYFDVWGQGTLVTVSS VL: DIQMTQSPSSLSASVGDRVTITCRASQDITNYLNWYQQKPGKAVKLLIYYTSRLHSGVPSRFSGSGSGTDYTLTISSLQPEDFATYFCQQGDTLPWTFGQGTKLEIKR
Measured: 1

Binder: VH G56Y (82BIT) (Fab, V domains shown) VH: EVQLVQSGAEVKKPGASVKVSCKASGYTFTSYWMHWVRQAPGQGLEWMGRIDPQSGYIKYAQKFQGRATLTVDTSTSTAYMELSRLRSDDTAVYYCARWDYGGYFDVWGQGTLVTVSS VL: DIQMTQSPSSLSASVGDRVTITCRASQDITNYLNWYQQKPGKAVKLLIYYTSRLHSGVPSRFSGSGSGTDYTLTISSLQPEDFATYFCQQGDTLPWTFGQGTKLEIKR
Measured: 1

Binder: VH S31Y (70BIT) (Fab, V domains shown) VH: EVQLVQSGAEVKKPGASVKVSCKASGYTFTYYWMHWVRQAPGQGLEWMGRIDPQSGGIKYAQKFQGRATLTVDTSTSTAYMELSRLRSDDTAVYYCARWDYGGYFDVWGQGTLVTVSS VL: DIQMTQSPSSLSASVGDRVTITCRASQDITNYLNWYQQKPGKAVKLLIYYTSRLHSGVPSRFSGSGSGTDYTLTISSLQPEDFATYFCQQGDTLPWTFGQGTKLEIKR
Measured: 1.2

IN: State the recorded Fold change for this entry: VL S56Y (53BIT) (Fab, V domains shown) VH: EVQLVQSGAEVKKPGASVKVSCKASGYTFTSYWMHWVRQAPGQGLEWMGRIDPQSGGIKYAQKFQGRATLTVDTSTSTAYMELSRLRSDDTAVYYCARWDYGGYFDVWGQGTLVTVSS VL: DIQMTQSPSSLSASVGDRVTITCRASQDITNYLNWYQQKPGKAVKLLIYYTSRLHYGVPSRFSGSGSGTDYTLTISSLQPEDFATYFCQQGDTLPWTFGQGTKLEIKR
OUT: 1.3
